Data credit: ChEMBL document CHEMBL5034045

# ASSAY TARGET: Protein-arginine deiminase type-4 (Homo sapiens)
# Sequence (Q9UM07 whole entry): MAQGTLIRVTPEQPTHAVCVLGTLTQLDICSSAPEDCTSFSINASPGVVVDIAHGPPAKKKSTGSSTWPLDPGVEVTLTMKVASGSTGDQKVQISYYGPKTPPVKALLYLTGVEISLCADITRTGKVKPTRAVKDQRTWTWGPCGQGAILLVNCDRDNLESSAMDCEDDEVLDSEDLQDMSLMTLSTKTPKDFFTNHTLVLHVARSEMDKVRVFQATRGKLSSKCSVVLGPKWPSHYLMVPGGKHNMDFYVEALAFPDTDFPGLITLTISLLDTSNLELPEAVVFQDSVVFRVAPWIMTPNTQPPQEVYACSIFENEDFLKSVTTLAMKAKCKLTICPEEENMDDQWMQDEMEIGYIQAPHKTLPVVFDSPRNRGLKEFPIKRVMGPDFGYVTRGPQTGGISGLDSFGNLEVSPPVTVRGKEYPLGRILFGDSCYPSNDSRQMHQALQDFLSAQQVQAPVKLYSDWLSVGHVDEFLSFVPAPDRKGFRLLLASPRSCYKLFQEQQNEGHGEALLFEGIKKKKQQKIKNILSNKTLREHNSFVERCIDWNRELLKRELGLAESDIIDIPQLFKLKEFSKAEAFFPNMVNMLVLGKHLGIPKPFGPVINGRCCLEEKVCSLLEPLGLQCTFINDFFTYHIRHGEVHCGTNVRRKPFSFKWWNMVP

COMPOUND: CC1NC(=O)c2cc3sccc3nc2CCCCCn2c(-c3nc4cc(C(=O)N5CCC[C@@H](N)[C@H]5C)cc(F)c4n3C3CC3)cc3ccc1nc32 (stereo partly specified)
IC50: 5 nM
